assay.context: 313.15 K; 101.33 kPa; Liquid
parameter.measured: mass density (kg/m3)

INSERT INTO results (mol, parameter_measured, unit_label, observed_value) VALUES
  ('CC(C)CO', 'mass density', 'kg/m3', 785.96),
  ('CC(C)(C)O', 'mass density', 'kg/m3', 765.16),
  ('C1COCO1', 'mass density', 'kg/m3', 1040),
  ('C1COCCO1', 'mass density', 'kg/m3', 1010.8);

====

assay.context: 298.15 K; 101.33 kPa; Liquid
parameter.measured: mass density (kg/m3)

INSERT INTO assay_data (mol, observed_value) VALUES
  ('CC(C)(C)O', 780.86),
  ('C1COCCO1', 1027.96),
  ('CC(C)CO', 797.83),
  ('C1COCO1', 1058.98);

====

assay.context: 313.15 K; 101.33 kPa; Liquid
parameter.measured: speed of sound (m/s)

INSERT INTO assay_data (mol, parameter_measured, unit_label, observed_value) VALUES
  ('CC(C)(C)O', 'speed of sound', 'm/s', 1057.4),
  ('C1COCCO1', 'speed of sound', 'm/s', 1279.8),
  ('C1COCO1', 'speed of sound', 'm/s', 1270.9),
  ('CC(C)CO', 'speed of sound', 'm/s', 1138.4);

====

assay.context: 298.15 K; 101.33 kPa; Liquid
parameter.measured: speed of sound (m/s)

INSERT INTO assay_data (mol, observed_value) VALUES
  ('CC(C)CO', 1188.5),
  ('CC(C)(C)O', 1122.8),
  ('C1COCO1', 1340.2),
  ('C1COCCO1', 1344.8);

Values were extracted from the NIST ThermoML archive (doi:10.1016/j.jct.2004.07.015).
